Consider the following molecules; for each one, report its TGI.
system: M14 melanoma; test: NCI tumour cell line growth inhibition, 48 h

### Prompt Find the recorded TGI belonging to OC1(c2ccc(Cl)cc2)c2ccc(CN3CCCC3)cc2C2=NCCN21 (stereo not given) and report it.
### Response 12.8 µM

### Prompt For the molecule shown here, `Cc1ccc(Nc2nnc(-c3ccc4c(c3)OCO4)o2)c(C)c1` , give the reported TGI.
### Response > 100 µM

### Prompt I have this molecule here, `COc1cc([C@@H]2c3cc4c(cc3[C@@H](c3c(O)cc(O)c5c3O[C@H](c3ccc(O)c(O)c3)[C@@H](O)C5)[C@H]3COC(=O)[C@H]23)OCO4)cc(OC)c1O` , and I need its recorded TGI.
### Response > 100 µM

### Prompt Name the recorded TGI for `C[C@]1(S(=O)(=O)c2ccccc2)C[C@H]2N(Cc3ccccc3)[C@@H]1CCC21OCCO1` .
### Response > 100 µM

### Prompt Given the molecule `CC(C)(C)C(=O)C(Cc1ccccc1)C(=O)C(C)(C)C` , what is its reported TGI?
### Response > 100 µM

====

system: CCRF-CEM leukemia; test: NCI tumour cell line growth inhibition, 48 h
Property measured: TGI (µM)
Unit µM implied. Number only.

### Prompt TGI lookup needed for `COc1ccc(/C=C(/c2ccccc2)[N+](=O)[O-])cc1` , thanks.
### Response 3.32

### Prompt # get_value(readout='TGI', item= `O=[N+]([O-])c1ccc(CSCc2ccc(Cl)cc2)cc1` )
### Response 38.7

### Prompt What TGI value was documented for this compound, OC1(c2ccc(Cl)cc2)c2ccc(CN3CCCC3)cc2C2=NCCN21 (centres undefined) ?
### Response 30.7

### Prompt # get_value(readout='TGI', item= COCOc1ccc(C2(O)Oc3cc(OCOC)ccc3C2C)c(O)c1 (centres undefined) )
### Response 53.7

====

system: CAKI-1 renal; assay: NCI tumour cell line growth inhibition, 48 h
Give TGI for every item shown.

### Prompt Query: TGI; subject: O=C1CCCc2cc3c(cc21)CC1(C3)Cc2ccc3c(c2C1)C(=O)CCC3 (configuration not stated)
### Response > 100 µM

### Prompt I am curious: what TGI value has been reported for `CC(C)(C)c1ccc(OCC(=O)O)c(Cl)c1` ?
### Response > 100 µM

### Prompt GET /values?readout=TGI&item= `C/C(=N\NC(=S)N1CC2CCC(CC2)C1)c1ccccn1`
### Response 3.89 µM

### Prompt Which TGI is reported for this molecule? `C/C(CCn1[nH]c(=O)ccc1=O)=N\OCCCc1ccccc1`
### Response > 100 µM

### Prompt Sample `CSC(SC)=C1C(=O)N(c2ccccc2)N=C1C` — what was its TGI?
### Response 65.8 µM

### Prompt I am curious: what TGI value has been reported for `CN1CCN(c2ccc(Nc3ncc4cc(C#N)c(=O)n(C5CCCC5)c4n3)cc2)CC1` ?
### Response 17.3 µM

### Prompt What TGI value was documented for this molecule, O=C(OCC(OC(=O)c1ccccc1)C(OC(=O)c1ccccc1)C(OC(=O)c1ccccc1)c1cnn(-c2ccccc2)n1)c1ccccc1 (configuration not stated) ?
### Response > 100 µM

### Prompt Need TGI of COc1cc(CC(C)N)ccc1O (configuration not stated) , thanks.
### Response > 100 µM

### Prompt Given `COc1cc(C2C(C(=O)Nc3cc(F)c(F)cc3F)=C(C)NC(C)=C2C(=O)Nc2cc(F)c(F)cc2F)ccc1O` , state its recorded TGI.
### Response 42.8 µM

### Prompt Which TGI is reported for this molecule? Cc1c(C#N)c(N)n(C2OCC(O)C(O)C2O)c(=S)c1C#N (configuration not stated)
### Response > 100 µM

### Prompt Which value of TGI has been reported for `CC/C=C/C/C=C/C/C=C/C/C=C/C/C=C/C/C=C/CCC(=O)Nc1ccn([C@@H]2O[C@H](CO)[C@@H](O)C2(F)F)c(=O)n1` in the records?
### Response 14.8 µM

### Prompt Consider the molecule shown here: `Cc1cc2nc(-c3cc(C(C)(C)C)c(O)c(C(C)(C)C)c3)[nH]c2cc1C` What is its recorded TGI?
### Response > 26.2 µM

### Prompt Which TGI value belongs to `COc1cc(C=C2C(=O)NC(=S)NC2=O)cc(OC)c1OC` ?
### Response > 100 µM

### Prompt Endpoint output: TGI of CC1=CC(=O)C(C(O)(C(F)(F)F)C(F)(F)F)C(C)(C)C1 (configuration not stated) . Value?
### Response > 10 µM

### Prompt For the molecule shown here, `COC(=O)c1cc(/C=C/c2ccc(S(N)(=O)=O)cc2)ccc1O` , give the reported TGI.
### Response > 100 µM

### Prompt Quick one: TGI of N#CC(C(=O)CCC(=O)Nc1cccc(C(F)(F)F)c1)c1ccc(Cl)cc1 (configuration not stated) ?
### Response > 100 µM

### Prompt Return reported TGI; argument: `Cc1ccc(-c2c(C#N)c(-c3ccc([N+](=O)[O-])cc3)c(C#N)c(=O)n2NS(=O)(=O)c2ccccc2)cc1`
### Response > 100 µM

### Prompt Fill in: TGI of `Oc1ccc(Br)cc1C=Nc1ccc(N=Cc2cc(Br)ccc2O)cc1` is ___
### Response > 100 µM

### Prompt Quick one: TGI of `S=C1SC2=Nc3ccccc3CN2C2=NCCN12` ?
### Response > 100 µM

### Prompt Requested read-out: TGI. Entry: CC1=CC(=O)CC2(C)CCC(C(C)CC(=O)CC(C)C)CC12 (configuration not stated)
### Response 30.2 µM

### Prompt What value of measured TGI is listed for COP(=O)(OC)C12CCOCCN1c1ccccc1C2=O (configuration not stated) ?
### Response > 100 µM

### Prompt Entry under review: O=C1CC(Sc2nc3ccc(I)cc3c(=O)n2Cc2ccccc2)C(=O)NN1 (configuration not stated) . Reported TGI?
### Response 11.2 µM

This collection of values is drawn from PubChem BioAssay (NCI).
